# ASSAY_SYSTEM: T1, Cdc13-MOB-DBD (Saccharomyces cerevisiae, UniProt P32797 344-694)
# T1 sequence: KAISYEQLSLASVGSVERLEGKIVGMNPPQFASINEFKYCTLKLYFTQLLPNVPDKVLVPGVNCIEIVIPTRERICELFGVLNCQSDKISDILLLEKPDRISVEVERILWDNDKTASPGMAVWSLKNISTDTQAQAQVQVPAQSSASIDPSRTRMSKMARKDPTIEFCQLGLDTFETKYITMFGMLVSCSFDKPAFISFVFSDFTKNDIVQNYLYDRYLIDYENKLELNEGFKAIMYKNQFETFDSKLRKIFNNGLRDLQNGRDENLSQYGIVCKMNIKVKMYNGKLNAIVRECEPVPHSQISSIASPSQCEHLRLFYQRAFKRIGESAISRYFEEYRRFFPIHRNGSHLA
# ASSAY_METHOD_TEXT: filter binding
QUANTITY_MEASURED: pKd
Expect pKd as a plain number equal to -log10 of the molar concentration.

Which pKd is reported for this binder? GTGTGGGTGTG (ssDNA) [Tel11] 9.74
